Hey, just so you know, these numbers are from PubChem BioAssay (NCATS).

Experiment notes: qHTS of pediatric cancer cell lines to identify multiple opportunities for drug repurposing: Primary screen for SJ-GBM2 cells (AID 1347091); note: potency is the fitted concentration of half-maximal effect
Assay setup: SJ-GBM2 viability, CellTiter-Glo luminescence, 48 h; series mostly up to 46 µM
Records with an inconclusive call do not appear. Activity calls are given as the source filed them. Calls come from the whole dose curve; as a rule, active = well fitted cell-killing curve with a large enough effect; inconclusive = small, poorly fitted or top-dose-only effect; inactive = no such curve, though single readings can be large or run the other way.
Quantity: Potency

In [3]: df
Out[3]:
                  compound_structure_string        measurement
0  Cc1cc(Nc2cc(N3CCN(C)CC3)nc(C=Cc3ccccc3)n2)n[nH]1   13.6 µM (active)
1  CN(c1ncccc1CNc1nc(Nc2ccc3c(c2)CC(=O)N3)ncc1C(F)(F)F)S(C)(=O)=O   3.32 µM (active)
2  NC(=O)Nc1cc(-c2cccc(F)c2)sc1C(=O)N[C@H]1CCCNC1  0.235 µM (active)
3  COc1cc2ncn(-c3cc(OCc4ccccc4C(F)(F)F)c(C(N)=O)s3)c2cc1OC  0.662 µM (active)
4  CNC(=O)c1cc(Oc2ccc(NC(=O)Nc3cc(C(C)(C)C)nn3-c3ccc4ncccc4c3)c(F)c2)ccn1   1.32 µM (active)
5  Nc1ccccc1NC(=O)c1ccc(CNc2nccc(-c3cccnc3)n2)cc1   2.35 µM (active)
6  O=C(Nc1cc(C(F)(F)F)cc(C(F)(F)F)c1)c1cc(Cl)ccc1O  0.235 µM (active)
7  C[C@@H]1CN(CC(=O)Nc2ccc3c(c2)Cc2cccc(-c4cc(=O)cc(N5CCOCC5)o4)c2S3)C[C@H](C)O1   14.8 µM (active)
8  Cc1cccc(C=NNc2cc(N3CCOCC3)nc(OCCc3ccccn3)n2)c1   1.32 µM (active)

----------
Assayed system: Phospholipid hydroperoxide glutathione peroxidase GPX4 (Homo sapiens)
Experiment notes: Primary qHTS Assay for Inhibitors of Recombinant Selenoprotein Glutathione Peroxidase 4 (GPX4) (AID 1845192); note: nearly all actives have a fitted effect of over 65% in size
Assay setup: recombinant GPX4, GR-coupled NADPH fluorescence, 15 min; series mostly up to 50 µM
Inconclusive results are not listed. Calls of active or inactive are those of the source. Calls come from the whole dose curve; as a rule, active = well fitted inhibition curve with a large enough effect; inconclusive = small, poorly fitted or top-dose-only effect; inactive = flat fitted curve, though single readings scatter.
Outcomes: 1 (yes) (active), 0 (no) (inactive)

>>> print(df.to_string())
                                    molecule                            assayed_system    group
 0  COc1cc2nccc(Oc3ccc(NC(=O)C4(C(=O)Nc5ccc(F)cc5)CC4)cc3)c2cc1OC  Phospholipid hydroperoxide glutathione peroxidase GPX4 (Homo sapiens)   0 (no)
 1  C#Cc1cccc(Nc2ncnc3cc(OC)c(OCCCCCCC(=O)NO)cc23)c1  Phospholipid hydroperoxide glutathione peroxidase GPX4 (Homo sapiens)   0 (no)
 2  O=C(NC1CCNCC1)c1[nH]ncc1NC(=O)c1c(Cl)cccc1Cl  Phospholipid hydroperoxide glutathione peroxidase GPX4 (Homo sapiens)   0 (no)
 3  O=c1[nH]nc(Sc2ncc([N+](=O)[O-])s2)n1-c1ccc2c(c1)OCCO2  Phospholipid hydroperoxide glutathione peroxidase GPX4 (Homo sapiens)   0 (no)
 4  CC[C@@]1(O)C(=O)OCc2c1cc1n(c2=O)Cc2cc3cc(O)ccc3nc2-1  Phospholipid hydroperoxide glutathione peroxidase GPX4 (Homo sapiens)   0 (no)
 5  CNC(=O)c1ccccc1Nc1nc(Nc2ccc(N3CCOCC3)cc2OC)ncc1Cl  Phospholipid hydroperoxide glutathione peroxidase GPX4 (Homo sapiens)   0 (no)
 6  CC(C)c1noc(N2CCC(COc3ccc(-c4ccc(S(C)(=O)=O)cc4)nc3)CC2)n1  Phospholipid hydroperoxide glutathione peroxidase GPX4 (Homo sapiens)   0 (no)
 7  Cn1c(=O)n(-c2ccc(C(C)(C)C#N)cc2)c2c3cc(-c4cnc5ccccc5c4)ccc3ncc21  Phospholipid hydroperoxide glutathione peroxidase GPX4 (Homo sapiens)   0 (no)
 8  CS(=O)(=O)N1CCN(Cc2cc3nc(-c4cccc5[nH]ncc45)nc(N4CCOCC4)c3s2)CC1  Phospholipid hydroperoxide glutathione peroxidase GPX4 (Homo sapiens)   0 (no)
 9  C[C@]12CC[C@H](O)CC1=CCC1C2CC[C@]2(C)C(n3cnc4ccccc43)=CCC12 (stereo not given in full)  Phospholipid hydroperoxide glutathione peroxidase GPX4 (Homo sapiens)   0 (no)
10     CCNC(=O)Nc1ccc2ncc(Nc3ccc(C)cc3)nc2n1  Phospholipid hydroperoxide glutathione peroxidase GPX4 (Homo sapiens)   0 (no)
11  CN(C)Cc1c(C(=O)NCCOc2ccc(C(=O)NO)cc2)oc2ccccc12  Phospholipid hydroperoxide glutathione peroxidase GPX4 (Homo sapiens)   0 (no)
12  O=C(O)c1ccc2c(c1)nc(Nc1cccc(Cl)c1)c1ccncc12  Phospholipid hydroperoxide glutathione peroxidase GPX4 (Homo sapiens)   0 (no)
13  C[C@@H](Oc1cc(-c2cnn(C3CCNCC3)c2)cnc1N)c1c(Cl)ccc(F)c1Cl  Phospholipid hydroperoxide glutathione peroxidase GPX4 (Homo sapiens)   0 (no)
14  NC(=O)c1cccc2cn(-c3ccc([C@@H]4CCCNC4)cc3)nc12  Phospholipid hydroperoxide glutathione peroxidase GPX4 (Homo sapiens)  1 (yes)
15  COc1ccc2c(c1)CC[C@@H](CN(C)CC(=O)O)[C@H]2c1ccccc1  Phospholipid hydroperoxide glutathione peroxidase GPX4 (Homo sapiens)   0 (no)
16  COc1c(N2C[C@@H]3CCCN[C@H]3C2)c(F)cc2c(=O)c(C(=O)O)cn(C3CC3)c12  Phospholipid hydroperoxide glutathione peroxidase GPX4 (Homo sapiens)  1 (yes)
17  COc1cc2c(cc1-c1c(C)noc1C)ncc1[nH]c(=O)n([C@H](C)c3ccccn3)c12  Phospholipid hydroperoxide glutathione peroxidase GPX4 (Homo sapiens)   0 (no)
18  COc1cc(C(=O)NS(=O)(=O)c2ccccc2C)ccc1Cc1cn(C)c2ccc(NC(=O)OC3CCCC3)cc12  Phospholipid hydroperoxide glutathione peroxidase GPX4 (Homo sapiens)  1 (yes)
19  COc1cc2c(Oc3ccc4[nH]c(C)cc4c3F)ncnc2cc1OCCCN1CCCC1  Phospholipid hydroperoxide glutathione peroxidase GPX4 (Homo sapiens)   0 (no)

----------
Experiment notes: Quantitative High-Throughput drug screen in 47 multiple myeloma cell lines against the NCATS MIPE library collection: ARP1_JJKsccF8 cell viability assay (AID 1918928; note: nearly all actives have a fitted effect of over 40% in size; note: potency is the fitted concentration of half-maximal effect;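 for viability: 100% = DMSO only wells and 0% = medium only wells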)
Assay setup: ARP1 myeloma cells viability, CellTiter-Glo ATP, 48 h; series mostly up to 45.8 µM
Results filed as inconclusive are left out. Activity calls are given as the source filed them. Calls follow the shape of the dose curve; as a rule, active = well fitted cell-killing curve with a large enough effect; inconclusive = small, poorly fitted or top-dose-only effect, or effect the other way; inactive = no such curve, though single readings can be large or run the other way.
Quantity: Potency

In [3]: df
Out[3]:
                                    compound         measurement
 0  CNc1nccc(-c2cccnc2Oc2cc(C(=O)Nc3cccc(C(F)(F)F)c3)ccc2C)n1    23.5 µM (active)
 1  CC(C)(C)c1cnc(CSc2cnc(NC(=O)C3CCNCC3)s2)o1   0.209 µM (active)
 2  CN(C)Cc1c(C(=O)NCCOc2ccc(C(=O)NO)cc2)oc2ccccc12   0.526 µM (active)
 3  CCCCOc1c(C(=O)c2c(F)cc(C)cc2F)cnc2n[nH]cc12    4.18 µM (active)
 4  CCCCN1CCC(CNC(=O)c2c3n(c4ccccc24)CCCO3)CC1    20.9 µM (active)
 5             O=C(O)CO.[NH2-].[NH2-].[Pt+2]            inactive
 6  Cc1cc(Nc2cc(CN3CCOCC3)c3nc(C)c(Cc4ccc(Cl)cc4F)n3n2)n[nH]1    13.2 µM (active)
 7  COc1cc2ncnc(Nc3ccc(F)c(Cl)c3)c2cc1NC(=O)C=CCN1CCCCC1    23.5 µM (active)
 8  CC[C@@H]1C(=O)N(C)c2cnc(Nc3ccc(C(=O)NC4CCN(C)CC4)cc3OC)nc2N1C1CCCC1  0.0372 µM (active)
 9  O=C(Nc1cn[nH]c1-c1nc2ccc(CN3CCOCC3)cc2[nH]1)NC1CC1    4.18 µM (active)
10         OCc1ccc(-c2ccc(-c3ccc(CO)s3)o2)s1    18.7 µM (active)
11  C=CC(=O)Nc1cc2c(Nc3ccc(F)c(Cl)c3)ncnc2cc1OCCCN1CCOCC1     5.9 µM (active)
12  c1nc2nc(Nc3ccc(N4CCOCC4)cc3)nc(NC3CCCCC3)c2[nH]1    14.8 µM (active)
13  CC[C@@H]1C(=O)N(C)c2cnc(Nc3ccc(C(=O)NC4CCC(N5CCN(CC6CC6)CC5)CC4)cc3OC)nc2N1C(C)C (stereo not given in full)   0.132 µM (active)
14       Nc1ccn([C@@H]2CS[C@H](CO)O2)c(=O)n1            inactive
15  CC1(C)CC(=O)c2c(C(F)(F)F)nn(-c3ccc(C(N)=O)c(NC4CCC(OC(=O)CN)CC4)c3)c2C1 (stereo not given)   0.235 µM (active)
16  CN1CC[C@@H](c2c(O)cc(O)c3c(=O)cc(-c4ccccc4Cl)oc23)[C@@H](O)C1  0.0833 µM (active)
17  O=C(O)c1ccc2cc(-c3ccc(O)c(C45CC6CC(CC(C6)C4)C5)c3)ccc2c1     5.9 µM (active)
18  NCC(=O)Nc1ccc(-n2nc(C(F)(F)F)cc2-c2ccc3c(ccc4ccccc43)c2)cc1    23.5 µM (active)
19  CC[C@@]1(O)C(=O)OCc2c1cc1n(c2=O)Cc2cc3cc(O)ccc3nc2-1   0.418 µM (active)
